# protocol-description: Plasma level data at a dose of 36 mg/kg, iv after 0.25 hr
# Assay type: ADME, organism-based
# Set-up: dose 36 mg/kg, route intravenous
# assay-context: read-out: Plasma level
assay-readout: concentration at 0.25 h (µg/mL)
Provide only the numeric value, understood in µg/mL.

Any idea what concentration at 0.25 h was measured for CCCc1c(O)n(Cc2ccc(F)cc2)c2nc3c(c(=O)n(C)c(=O)n3C)n2c1=O ?
140

----------
# tested-system: Cyclooxygenase (Rattus norvegicus) (UniProt P35355+Q63921)
# protocol-description: In vitro inhibitory activity against Prostaglandin G/H synthase in rat neutrophils at a dose of 50 uM
assay-readout: inhibition (%)
Kindly provide the numeric value in % only, without the unit symbol.

May I ask what inhibition has been recorded for CCCc1c(O)n(Cc2ccccc2)c2nc3c(c(=O)n(C)c(=O)n3C)n2c1=O ?
43

Suppose we examine the molecule CC(C)=CCc1c(O)n(Cc2ccccc2)c2nc3c(c(=O)n(C)c(=O)n3C)n2c1=O ; what inhibition value has been reported?
92

Returns the measured inhibition for the input molecule. Input: C#CCc1c(O)n(Cc2ccccc2)c2nc3c(c(=O)n(C)c(=O)n3C)n2c1=O
9

Returns the measured inhibition for the input molecule. Input: Cn1c(=O)c2c(nc3n(Cc4ccccc4)c(O)c(C4C=CCCC4)c(=O)n23)n(C)c1=O (centres undefined)
17
